Test system: APEH
test.description: competitive ABPP of Abhd10 versus anti-targets – biochemical, fluorescence, gel-based, mouse proteome, selectivity assay for PME-1 inhibitor project, late-stage follow-up (AID 588807)
test.conditions: anti-target, inhibition, at 1 µM, stronger effect = higher value
Listed here: items and their measured inhibition.
observed.property: inhibition

# item.smiles, test.system, measurement
measured = [
    ("CC[C@@]1(c2cccc(Cl)c2)C(=O)N(C(=O)OC(C)C)N1C(=O)OC(C)C", "APEH", "30%"),
    ("CC[C@@]1(c2cccc(F)c2)C(=O)N(C(=O)OC(C)C)N1C(=O)OC(C)C", "APEH", "20%"),
    ("CC[C@]1(c2ccc(C)cc2)C(=O)N(C(=O)OC(C)C)N1C(=O)OC(C)C", "APEH", "30%"),
    ("CC[C@@]1(c2ccc(OC)cc2)C(=O)N(C(=O)OC)N1C(=O)OC", "APEH", "95%"),
    ("CC[C@@]1(c2ccccc2)C(=O)N(C(=O)OC(C)C)N1C(=O)OC(C)C", "APEH", "10%"),
]

###

test.system: Prolyl endopeptidase (Mus musculus) (UniProt Q9QUR6)
Sequence (Q9QUR6 whole entry, looked up): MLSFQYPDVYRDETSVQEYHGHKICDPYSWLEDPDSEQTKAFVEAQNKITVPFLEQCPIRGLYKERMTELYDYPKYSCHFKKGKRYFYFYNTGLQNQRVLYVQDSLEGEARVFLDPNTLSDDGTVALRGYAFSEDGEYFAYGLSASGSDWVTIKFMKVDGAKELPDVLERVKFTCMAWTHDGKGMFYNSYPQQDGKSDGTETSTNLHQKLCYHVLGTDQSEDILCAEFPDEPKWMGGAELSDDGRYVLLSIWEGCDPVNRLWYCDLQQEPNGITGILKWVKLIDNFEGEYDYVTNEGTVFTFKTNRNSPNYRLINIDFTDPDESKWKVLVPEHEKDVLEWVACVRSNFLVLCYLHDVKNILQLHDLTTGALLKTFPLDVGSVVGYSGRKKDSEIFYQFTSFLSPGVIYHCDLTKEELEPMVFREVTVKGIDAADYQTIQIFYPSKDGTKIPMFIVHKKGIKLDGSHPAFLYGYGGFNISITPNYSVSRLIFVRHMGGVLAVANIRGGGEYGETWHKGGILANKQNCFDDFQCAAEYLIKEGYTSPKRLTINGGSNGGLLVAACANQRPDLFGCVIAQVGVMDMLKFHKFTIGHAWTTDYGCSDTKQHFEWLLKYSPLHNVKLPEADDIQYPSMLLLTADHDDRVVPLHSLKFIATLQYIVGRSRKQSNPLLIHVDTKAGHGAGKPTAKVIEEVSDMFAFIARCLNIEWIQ
test.description: competitive ABPP of Abhd10 versus anti-targets – biochemical, fluorescence, gel-based, mouse proteome, selectivity assay for PME-1 inhibitor project, late-stage follow-up (AID 588807)
test.conditions: PREP, anti-target, at 10 µM, stronger effect = higher value
observed.property: inhibition (%)

# item.smiles, observed.property, measurement
measured = [
    ("CCOC(=O)N1C(=O)[C@@](C)(c2cccc(C)c2)N1C(=O)OCC", "inhibition", 0),
    ("CC[C@@]1(c2cccc(C)c2)C(=O)N(C(=O)OC)N1C(=O)OC(C)C", "inhibition", 70),
    ("CC[C@@]1(c2ccccc2)C(=O)N(C(=O)OC)N1C(=O)OC", "inhibition", 0),
    ("CC[C@@]1(c2ccc(C)cc2)C(=O)N(C(=O)OC(C)C)N1C(=O)OC(C)C", "inhibition", 75),
    ("CC[C@@]1(c2ccc(Cl)c(Cl)c2)C(=O)N(C(=O)OC)N1C(=O)OC", "inhibition", 25),
]

###

Listed here: items and their measured inhibition.
Tested on: APEH
test.description: competitive ABPP of Abhd10 versus anti-targets – biochemical, fluorescence, gel-based, mouse proteome, selectivity assay for PME-1 inhibitor project, late-stage follow-up (AID 588807)
test.conditions: anti-target, at 10 µM, stronger effect = higher value

# compound, unit.of.measurement, inhibition
records = [
    ("Cc1cccc([C@]2(C)C(=O)N(C(=O)OC(C)C)N2C(=O)OC(C)C)c1", "%", 25),
    ("CC[C@@]1(c2ccccc2C)C(=O)N(C(=O)OC)N1C(=O)OC", "%", 55),
    ("CC[C@@]1(c2ccc(OC)cc2)C(=O)N(C(=O)OC)N1C(=O)OC", "%", 95),
    ("CC[C@@]1(c2ccc(Cl)cc2)C(=O)N(C(=O)OC)N1C(=O)OC", "%", 45),
    ("CC[C@@]1(c2ccccc2)C(=O)N(C(=O)OC(C)C)N1C(=O)OC(C)C", "%", 85),
    ("COC(=O)N1C(=O)[C@](c2ccccc2)(C2CCCC2)N1C(=O)OC", "%", 85),
    ("CC[C@@]1(c2cccc(C)c2)C(=O)N(C(=O)OC(C)C)N1C(=O)OC(C)C", "%", 75),
    ("CC[C@@]1(c2cccc(F)c2)C(=O)N(C(=O)OC(C)C)N1C(=O)OC(C)C", "%", 100),
    ("CCC[C@@]1(c2cccc(C)c2)C(=O)N(C(=O)OC)N1C(=O)OC", "%", 0),
    ("CC[C@@]1(c2cccc(Cl)c2)C(=O)N(C(=O)OC)N1C(=O)OC", "%", 90),
    ("CC[C@@]1(c2cccc(OC)c2)C(=O)N(C(=O)OC(C)C)N1C(=O)OC(C)C", "%", 0),
    ("CCOC(=O)N1C(=O)[C@@](CC)(c2ccc(C)cc2)N1C(=O)OCC", "%", 0),
    ("CCCOC(=O)N1C(=O)C(CC)(c2cccc(C)c2)N1C(=O)OCCC (stereo unspecified)", "%", 10),
    ("CC[C@@]1(c2cccc(OC)c2)C(=O)N(C(=O)OC)N1C(=O)OC", "%", 0),
    ("CC[C@@]1(c2ccc(Cl)c(Cl)c2)C(=O)N(C(=O)OC(C)C)N1C(=O)OC(C)C", "%", 50),
    ("CC[C@@]1(c2cccc(C)c2)C(=O)N(C(=O)OC(C)C)N1C(=O)OC", "%", 0),
    ("C=CCOC(=O)N1N(C(=O)OC)C(=O)[C@@]1(CC)c1cccc(C)c1", "%", 75),
    ("C=CCOC(=O)N1C(=O)[C@@](CC)(c2ccccc2)N1C(=O)OC", "%", 40),
    ("CC[C@@]1(c2ccccc2)C(=O)N(C(=O)OC)N1C(=O)OC", "%", 0),
    ("C=CCOC(=O)N1C(=O)[C@@](CC)(c2ccc(C)cc2)N1C(=O)OCC=C", "%", 0),
    ("CC[C@@]1(c2ccc(OC)cc2)C(=O)N(C(=O)OC(C)C)N1C(=O)OC(C)C", "%", 70),
]
